Cited source: patent US20260285850A1

Test system: wheat (Triticum aestivum)
ASSAY_DETAILS: Test A preemergence soil spray, visual injury rating 0-100
Assay type: in vivo
CONDITION_DESCRIPTION: 62 g ai/ha, 10 days, 0 = no effect, 100 = complete control
ENDPOINT_LABEL: Wheat plant response rating (0-100)
Write no unit; give the number alone.

Problem: Fill blank: measured Wheat plant response rating (0-100) of the compound CC(C)COC(=O)C1=CCC(NC(=O)C2(C)CN(c3cc(F)cc(Cl)c3)C(=O)O2)C1 (stereo not shown) is ____.
Solution: 0

Problem: Same read-out for COC(=O)C1=CCC(NC(=O)C2(C)CN(c3cc(F)cc(Cl)c3)C(=O)O2)C1 (stereo not shown) ?
Solution: 80

Problem: Same read-out for CC(C)OC(=O)C1=CCC(NC(=O)C2(C)CN(c3cc(F)cc(F)c3)C(=O)O2)C1 (stereo not shown) ?
Solution: 90

Problem: Same read-out for CCOC(=O)C1=CCC(NC(=O)C2(C)CN(c3cc(Cl)cc(Cl)c3)C(=O)O2)C1 (stereo not shown) ?
Solution: 40
